# Test system: UACC-257
# EXPERIMENT SUMMARY: NCI tumour cell line growth inhibition, 48 h
Calls of active or inactive are those of the source. No stated cut-off is given here; in the data, active = GI50 up to about 1.1 µM and inactive = higher. Where a SMILES comes first, the peptide text is derived from it. [ ]: non-standard residue; d: D form. The star is where a group is joined. Hyp = O=C(O)[CH]1C[CH](O)CN1; Cbz = O=C(OCc1ccccc1)*
OBSERVED PROPERTY: GI50

- CCN(CC)CCC(=O)c1ccc(Oc2ccccc2)cc1: 17.2 µM (inactive)
- NC(=O)CNC(=O)C1CC(O)CN1C(=O)C1CCCN1C(=O)OCc1ccccc1 (stereo not drawn) (Cbz-Pro-[Hyp]-Gly-NH2; configuration not given here): > 100 µM (inactive)
- COc1cccc(NC(=O)CSc2nnc(-c3ccc(NC(C)=O)cc3)o2)c1: > 100 µM (inactive)
- CCCCc1ccc(Nc2nc(S)c3[nH]cnc3n2)cc1: 21.6 µM (inactive)
- Oc1ccc(Cc2cc(Cc3ccc(O)cc3)cc(Cc3ccc(O)cc3)c2)cc1: > 50 µM (inactive)
